From: patent US20070049521A1

Target: T1, human NPR-C (natriuretic peptide receptor C, clearance receptor), overexpressed on HEK293 cells (human, UniProt P17342 27-541)
T1 construct: whole, on cells; also called natriuretic clearance receptor
T1 sequence (looked up): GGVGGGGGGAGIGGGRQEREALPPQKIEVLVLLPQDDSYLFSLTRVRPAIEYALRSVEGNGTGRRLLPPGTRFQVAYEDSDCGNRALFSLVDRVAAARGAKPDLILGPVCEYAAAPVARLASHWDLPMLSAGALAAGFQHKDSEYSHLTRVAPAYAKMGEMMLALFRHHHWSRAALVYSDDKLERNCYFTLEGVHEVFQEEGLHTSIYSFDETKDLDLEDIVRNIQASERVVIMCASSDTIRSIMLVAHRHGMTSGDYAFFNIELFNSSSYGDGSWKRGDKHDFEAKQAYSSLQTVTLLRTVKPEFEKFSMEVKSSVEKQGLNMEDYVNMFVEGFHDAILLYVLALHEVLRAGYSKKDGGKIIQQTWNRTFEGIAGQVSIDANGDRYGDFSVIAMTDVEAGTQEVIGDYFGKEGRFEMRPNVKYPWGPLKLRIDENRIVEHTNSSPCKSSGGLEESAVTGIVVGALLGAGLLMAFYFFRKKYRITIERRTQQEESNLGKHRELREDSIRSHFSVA
Experiment: competition of ~30 nM PLAP-Ostn binding on NPR-C-transfected HEK293 cells
No end group written: not given here.
Parameter Measured: IC50

Read off the recorded IC50 for YDHSKKRFGIPMDRIGRNRLSNSR-NH2 [mouse amidated Ostn[107-129] synthetic C-terminal peptide] 1 to 10 nM
